# assayRemarks: soluble on expression in E. coli; label from the status in PepcDB or PDB records
measuredMetric: soluble on expression in E. coli

Observe how each entry below is paired with its result.
MSHRNDSSRKHRKSRSIKNDQHYPTVSFDGAESVDIPADEGKSPVSTHLSLASNPTEFKFMDEIALLKRGRIDKDAPKHPYNRRGQQPMMKKEISVTSAHSNSSLPVRSPAIMTLMGGVPEAEKEYNVGKGGLLKISKMKEGGKRYEVSANERFTVFQQTAGQTCLFTFKA = not soluble
MKTVMATGTFDIIHPGHGFFLEEARKLGGEDARLVVVLARDSTVRARKRTPIVGEKQRLEVVRMLKPVDEAYLGSETDMFEIVHRIKPDIIAIGPDQKFDVDELRDELRRRGLGCEVRRIEKYRDAELDSTCKIIKRIRSMEFDEDSLKNC = not soluble
MAHHHHHHMEGEEVPLVQPFRQHREQCRVKLQEIGPRMTLQLSKVENGFAGGEVIYHRTEKKTLREVQVNASKVRARKTEKAKRRALQDENVQRKRQKREDKLERKHQRREAAAEAQQANPFEVAHGDGDGDGYAAGDEE = not soluble
MGSDKIHHHHHHMDGTRERPMRKIIAATFVSLDGVMQAPGGPEEDPVGGFKFGGWTFHYFDEVGGAAMDELFSKPFTLLLGRRTYDIFTAYWPYQKDPIADAFNPATKYVATHRPDTLTWQNTQWLGEDIVAALRRLSKQDGPDLLIQRSADLIQTLLANGLIDEIRLMIFPLLLGKGKRLFGDGAMPAAFKLVKSQTSSTGVIIATYERSGEIEVGSFVMGEPSVAELERRRNWK = not soluble
MSLAEQLAIADLQVDIKQIPLKQPFVTALHRVDAVNAVRVTVRLANGVTGVGTCTPNEKVTGDSLSSARAVIEETIKPLVLGKNLTDWKELLNTVKTSIVHNAPAKAAVEIALYNTRANLFGLTLSQLLGGKGGSVETDYTISIGKAEQMIADAQKMVDQGFKTLKLKLGAGHLKRDIKLVEDLAYAAGPMVHLRLDMNQACDVRQTMQAAEYWHKQGLLIDFIEQPVPAWDLDSMAYLTRHSPYPIMADESVESYEDAQRVLAKNACDYINIKLMKTGGLSEAQKINDLAESRGVPTMVGSMIESIESLAAACAFYRANPNTIFADLDAIFMVDQDPDLNSYAECVGDNIVVREGHHHHHH = soluble

Now look at this entry.
sequence `MKAYKLLTTASIGALMLGMSTAAYSDNWRYAHEEYEGDVQDVFAQAFKGYVEDNSDHTVQVYRFGELGESDDIMEQTQNGILQFVNQSPGFTGSLIPSAQIFFIPYLMPTDMDTVLEFFDESKAINEMFPKLYAEHGLELLKMYPEGEMVVTADEPITSPEDFDNKKIRTMTNPLLAETYKAFGATPTPLPWGEVYGGLQTGIIDGQENPIFWIESGGLYEVSPNLTFTSHGWFTTAMMANQDFYEGLSEEDQQLVQDAADAAYDHTIEHIKGLSEESLEKIKAASDEVTVTRLNDEQIQAFKERAPQVEEKFIEMTGEQGQELLDQFKADLKAVQSESEG` , soluble on expression in E. coli observed: soluble

====

# assayRemarks: soluble on expression in E. coli; label from the status in PepcDB or PDB records
measuredMetric: soluble on expression in E. coli

Observe how each entry below is paired with its result.
MFSRGASTMQSRELREQLLGCVKSRKSLHVTGPPGSGKSTFVSRLAEALRVKGCRLGGFMAPEVRRGGRRVAFKIVDIASGEEGYLAVADESLAAPGGRRARHGRYLVLVDEAWRVMSHAIRNAFEHADIIIVDEIGPMELAVPGFREALTEILDSGKPLVTVFHRRLRTLDPGLYKLLERGCIVWLDERNRGPLIRLVSEIASALSNEACGNSLEHHHHHH = not soluble
AHHHHHHGSIEVRFHGRGGQGAVTAANILAEAAFLEGKYVQAFPFFGVERRGAPVTAFTRIDNKPIRIKTQIYEPDVVVVLDPSLLDAVDVTAGLKDEGIVIVNTEKSKEEVLEKLKKKPKKLAIVDATTIALEILGLPITNTAILGAVAKATGLVKIESIEEAIKDTFSGELGEKNARAAREAYEKTEVFEL = soluble
MKKMAFAAIALGLVACAPAQQQRLVYPPTVEVERIQLTSFSLPAPGRAAVAGVRLELNVDNPNPLPVRLVQLAGVLVLDGQEAGTVTVPDIRLPGQGRARQVAQLTLPVTFKTATTFLNIARGQEVSYRLDGTLTADLGPLGQPTFGPFTLTQGVWKQAPLSVF = soluble
MGHHHHHHSHMDALSPSPAIPSNTDYPGPHSFDVSFQQSSTAKSATWTYSTELKKLYCQIAKTCPIQIKVMTPPPQGAVIRAMPVYKKAEHVTEVVKRCPNHELSREFNEGQIAPPSHLIRVEGNSHAQYVEDPITGRQSVLVPYEPPQVGTEFTTVLYNFMCNSSCVGGMNRRPILIIVTLETRDGQVLGRRCFEARICACPGRDRKADEDSIRKQQVSDSTKNGDGTKRPFRQNTHGIQM = not soluble

Now look at this entry.
sequence `MGSDKIHHHHHHMFVCEVRFECFADTTISAAQHAINHLLEAWRANGQILGREFAVSFHDGEFKARLMLPAQDSLANRHNSPWAKAALKGLTDAKILPPREKLLGQDINANESATHTPEWQLLYTSYVHMCSPVRSGDNLLPIPLYKLPATFNGDHKQLIRWQTEWQACDELQMASATKAEFAALDELCNVGSDLFRRGWDLRGRIEYLTKIPTYYYLYRVGGSSLQDELARPCPRCGSTGWRLDEPLLDMFHFRCEPCRIVSNLSWDYQ` , soluble on expression in E. coli observed: not soluble

====

# assayRemarks: soluble on expression in E. coli; label from the status in PepcDB or PDB records
measuredMetric: soluble on expression in E. coli

Observe how each entry below is paired with its result.
MKLNKLFDSKTVVFKKSDKYGKSDCCKTKCVEGQIEFGVKIPTDFPAFNRALVTFLKTQKNQLNVDLDSFVELYKAENLCYKTALKVVVASITFCETTPFTMKTEPQKNVEVAVKCDSEHTSLIKEYEV = not soluble
MGSDKIHHHHHHMRIDLSLKPTPVQFLKRLSEKYGFNIYVKRDDLTELVGSGNKIRKLEYLLWEALKKGATTVFTCGGLQSNHARATAYVSRRYGLKPVLFLRKGEKVLNGNLLLDILLGAEIVEVSPEEYERIDEIFDVHKKMREKKGEKVYVIPEGGSNSLGAFGYFNAVLEMKDQLNLESFDAIVCAVGSGGTIAGLSAGISFLEYHVPVVGVNVTTKNSDYFVGKVKRIISGMEEYGLRVNETVFEVVDDYRGPGYAIPSSEDVEILKEVASIEGIILDPVYTAKAFRGMIEMFRNSEKNVLFIHTGGIFGLFAQSRRLV = not soluble
MIGRRHPYYPYLEAALEAASLARGIHLYYLEKGFTEGTKSGPTDLVTQADREAEEAVKGLLLSRFPEAGFLGEEGGSEGGKALRFIVDPLDGTVNYAHGFPFFAVSIALEAESAIQMGVVMDTARGEVFYALRGEGAYLNGRPIRVTGRESLVGSLLATGFPYDVAKDPENLTYFERALRKGLLVRRPGAAALDLAYVAAGRLEGFWEVKLNPWDVAAGWLLVEEAGGRVTDLEGNPYRLGSRYILATNGRVHEALRRTLLGLD = soluble
MGSDKIHHHHHHMMGEFEAIRPYSDAEVPAVLQRLLSDDAFLGALVRYRFPRLAGPLGWLLKPLIAHRLAREVTGIRSVATLQDKFEPYVDHTIEKATDGVTYSGVNRLKPGCAYLFIANHRDIVMDPAFVNYAVYHAGLPTPRIAIGDNLLQKSFVSDLMRLNKSFIVHRSLSGRREKLAAYQTLSAYINHSIREDRQSVWIAQAEGRAKDGDDRTDSAILKMFHMSRKDEPFAEMVRALHFIPVSISYEYDPCDLAKARELHTRASTGEYRKAPGEDDASIALGITGYKGRVHINFGAELEGEFSDAKQLAAELDRQILGNYRLFPVHYLAYEMSENRDPGLAVPTAESLFGSEELEKARKEWNRRLEQCPAEQRSWLVLQYANPVLNQYRIKQQS = not soluble

Now look at this entry.
sequence `MFRSSFCKNLENATSHLRLEPDWPSILLICDEINQKDVTPKNAFAAIKKKMNSPNPHSSCYSLLVLESIVKNCGAPVHEEVFTKENCEMFSSFLESTPHENVRQKMLELVQTWAYAFRSSDKYQAIKDTMTILKAKGHTFPELREADAMFTADTAPNWADGRVCHRCRVEFTFTNRKHHCRNCGQVFCGQCTAKQCPLPKYGIEKEVRVCDGCFAALQRG` , soluble on expression in E. coli observed: soluble
